In this section we review reported inhibition values for a set of compounds.
# TARGET DESC: Acetylcholinesterase (Electrophorus electricus) (UniProt O42275)
# Sequence (O42275 24-633 limits assumed): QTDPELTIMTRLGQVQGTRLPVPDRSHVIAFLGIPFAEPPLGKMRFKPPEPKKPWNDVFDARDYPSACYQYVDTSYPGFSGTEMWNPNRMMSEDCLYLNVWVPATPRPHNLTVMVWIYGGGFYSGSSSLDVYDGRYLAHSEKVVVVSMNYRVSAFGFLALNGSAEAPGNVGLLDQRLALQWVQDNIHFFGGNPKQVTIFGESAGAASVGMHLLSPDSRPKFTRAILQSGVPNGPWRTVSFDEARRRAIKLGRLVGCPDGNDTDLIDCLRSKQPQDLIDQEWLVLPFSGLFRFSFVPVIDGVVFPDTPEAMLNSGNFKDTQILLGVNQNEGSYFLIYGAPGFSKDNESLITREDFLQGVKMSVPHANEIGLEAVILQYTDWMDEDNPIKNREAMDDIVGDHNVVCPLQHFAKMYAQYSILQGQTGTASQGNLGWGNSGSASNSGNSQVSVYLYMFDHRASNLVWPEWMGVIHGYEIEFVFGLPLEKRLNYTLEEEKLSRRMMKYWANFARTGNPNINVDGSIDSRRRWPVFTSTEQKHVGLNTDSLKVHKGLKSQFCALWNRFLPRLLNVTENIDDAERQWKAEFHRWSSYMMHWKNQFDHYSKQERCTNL
# APPLIED CONDITIONS: at 2 mg/mL
# Description: Inhibition of electric eel AChE at 2 mg/ml by Ellman's method

{"COMPOUND": "O=c1c(O)c(-c2ccc(O)cc2)oc2cc(O)cc(O)c12", "inhibition [%]": 20}
{"COMPOUND": "CC[C@H]1CN2CCc3cc(OC)c(OC)cc3[C@@H]2C[C@@H]1C[C@H]1NCCc2cc(O)c(OC)cc21", "inhibition [%]": 11.9}
{"COMPOUND": "COc1ccc2cc1Oc1ccc(cc1)C[C@H]1c3cc(c(OC)cc3CCN1C)Oc1c(OC)c(OC)c(OC)c3c1[C@H](C2)N(C)CC3", "inhibition [%]": 23.4}
{"COMPOUND": "C=C[C@H]1CN2CC[C@H]1C[C@@H]2[C@@H](O)c1ccnc2ccc(OC)cc12 [QUINIDINE]", "inhibition [%]": 20.2}
{"COMPOUND": "COc1cc(O)c(C(=O)/C=C/c2ccccc2)c(OC)c1", "inhibition [%]": 27.1}
{"COMPOUND": "C[C@@H]1C[C@H]2O[C@@H]2/C=C\\C=C\\C(=O)Cc2c(Cl)c(O)cc(O)c2C(=O)O1", "inhibition [%]": 17.4}
{"COMPOUND": "CCC[C@@H]1C[C@@H](C(=O)N[C@@H]([C@H]2O[C@H](SC)[C@H](O)[C@@H](O)[C@H]2O)[C@@H](C)O)N(C)C1", "inhibition [%]": -3.63}
{"COMPOUND": "O=C1c2cccc(O)c2C(=O)c2c(O)cc(CO)cc21", "inhibition [%]": 14.6}
{"COMPOUND": "C[C@H]1CC[C@@H]2N(C1)C[C@H]1[C@@H]3C[C@H]4[C@@H](CC(=O)[C@H]5C[C@@H](O)CC[C@@]54C)[C@@H]3CC[C@H]1[C@]2(C)O", "inhibition [%]": 24.9}
{"COMPOUND": "CN1C2CCCC1CC(=O)C2", "inhibition [%]": 16.5}

----------
# TARGET DESC: Cholinesterase (Equus caballus) (UniProt P81908)
# Sequence (P81908 whole entry): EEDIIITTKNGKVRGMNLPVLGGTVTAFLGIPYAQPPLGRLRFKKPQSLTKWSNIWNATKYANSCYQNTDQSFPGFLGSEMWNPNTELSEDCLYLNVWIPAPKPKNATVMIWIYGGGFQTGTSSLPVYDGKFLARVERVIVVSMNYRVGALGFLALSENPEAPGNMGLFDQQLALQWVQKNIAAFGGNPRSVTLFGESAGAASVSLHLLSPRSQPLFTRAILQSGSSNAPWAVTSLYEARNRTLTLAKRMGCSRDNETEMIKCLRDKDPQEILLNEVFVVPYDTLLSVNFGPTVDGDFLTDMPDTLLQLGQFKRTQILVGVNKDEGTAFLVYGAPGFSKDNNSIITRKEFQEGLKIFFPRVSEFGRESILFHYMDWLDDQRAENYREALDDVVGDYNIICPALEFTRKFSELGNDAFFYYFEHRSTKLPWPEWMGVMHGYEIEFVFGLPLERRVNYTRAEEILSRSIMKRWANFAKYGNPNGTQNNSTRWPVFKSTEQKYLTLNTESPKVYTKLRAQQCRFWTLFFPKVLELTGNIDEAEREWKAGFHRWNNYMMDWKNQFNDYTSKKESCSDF
# APPLIED CONDITIONS: at 2 mg/mL
# Description: Inhibition of horse BChE at 2 mg/ml by Ellman's method
In this section we review reported inhibition values for a set of compounds.
ASSAY ENDPOINT: inhibition (%)

{"SMILES": "O=C(CCc1ccc(O)cc1)c1c(O)cc(O)cc1O", "UNIT ANNOTATION": "%", "EXPERIMENTAL RESULT": 17}
{"SMILES": "C[C@H]1[C@H](C)CC[C@]2(C(=O)O)CC[C@]3(C)C(=CC[C@@H]4[C@@]5(C)C[C@@H](O)[C@H](O)[C@@](C)(CO)[C@@H]5CC[C@]43C)[C@H]12", "UNIT ANNOTATION": "%", "EXPERIMENTAL RESULT": -8.64}
{"SMILES": "COc1c2ccoc2cc2oc(C)cc(=O)c12", "UNIT ANNOTATION": "%", "EXPERIMENTAL RESULT": 16.2}
{"SMILES": "COc1cc2c(cc1OC)[C@@H]1C(=O)c3ccc4c(c3O[C@@H]1CO2)C=CC(C)(C)O4", "UNIT ANNOTATION": "%", "EXPERIMENTAL RESULT": 2.21}
{"SMILES": "COC(=O)C1=CO[C@@H](C)[C@@H]2CN3CCc4c([nH]c5ccccc45)[C@@H]3C[C@H]12", "UNIT ANNOTATION": "%", "EXPERIMENTAL RESULT": 89.1}
{"SMILES": "CC1(C)CCC[C@](C)([C@H]2CC[C@]3(C)[C@@H]2[C@H](O)C[C@@H]2[C@@]4(C)CC[C@H](O)C(C)(C)[C@@H]4[C@@H](O)C[C@]23C)O1", "UNIT ANNOTATION": "%", "EXPERIMENTAL RESULT": 8.34}
{"SMILES": "C=C(C)[C@@H]1CC[C@]2(CO)CC[C@]3(C)[C@H](CC[C@@H]4[C@@]5(C)CC[C@H](O)C(C)(C)[C@@H]5CC[C@]43C)[C@@H]12", "UNIT ANNOTATION": "%", "EXPERIMENTAL RESULT": 0.47}
{"SMILES": "C[C@@H]1C[C@H]2CC[C@H](O2)[C@H](C)C(=O)O[C@@H](C)C[C@@H]2CC[C@@H](O2)[C@@H](C)C(=O)O[C@H](C)C[C@H]2CC[C@@H](O2)[C@H](C)C(=O)O[C@@H](C)C[C@@H]2CC[C@@H](O2)[C@@H](C)C(=O)O1", "UNIT ANNOTATION": "%", "EXPERIMENTAL RESULT": -1.31}
{"SMILES": "C[C@H]1C/C=C/[C@H]2[C@@H]3O[C@]3(C)[C@@H](C)[C@H]3[C@H](Cc4ccccc4)NC(=O)[C@]32OC(=O)O/C=C/[C@@](C)(O)C1=O", "UNIT ANNOTATION": "%", "EXPERIMENTAL RESULT": 9.25}
{"SMILES": "CC1=CC(=O)c2c(O)cccc2C1=O", "UNIT ANNOTATION": "%", "EXPERIMENTAL RESULT": 9.94}
{"SMILES": "COC(=O)[C@H]1[C@H]2C[C@H]3c4[nH]c5ccccc5c4CCN3C[C@@H]2CC[C@@H]1O", "UNIT ANNOTATION": "%", "EXPERIMENTAL RESULT": 6.02}
{"SMILES": "CC1(C)[C@@H](O)C[C@H]2[C@](C)(O)[C@@H]3CC[C@@H]4[C@@H](O)[C@@]3(C[C@@H](O)[C@@]21O)C[C@@]4(C)O", "UNIT ANNOTATION": "%", "EXPERIMENTAL RESULT": 4.52}
{"SMILES": "C[C@@H]1O[C@@H](O[C@H]2C[C@@H](O)[C@]3(CO)[C@H]4[C@H](O)C[C@]5(C)[C@@H](C6=CC(=O)OC6)CC[C@]5(O)[C@@H]4CC[C@]3(O)C2)[C@H](O)[C@H](O)[C@H]1O", "UNIT ANNOTATION": "%", "EXPERIMENTAL RESULT": 5.11}

----------
# TARGET DESC: Cholinesterase (Equus caballus) (UniProt P81908)
# APPLIED CONDITIONS: at 2 mg/mL
ASSAY ENDPOINT: inhibition (%)

{"SMILES": "COc1ccc2c3c4n(c2c1)[C@H](C=C(C)C)OOC(C)(C)C[C@@H]4N1C(=O)[C@@H]2CCCN2C(=O)[C@]1(O)[C@H]3O", "UNIT ANNOTATION": "%", "EXPERIMENTAL RESULT": 18}
{"SMILES": "COc1ccc(-c2cc(=O)c3c(OC)c(OC)c(OC)cc3o2)cc1OC", "UNIT ANNOTATION": "%", "EXPERIMENTAL RESULT": 17.1}
{"SMILES": "COc1cc2c(cc1OC)[C@H]1[C@@H](C)c3ccc(OC)c(OC)c3CN1CC2", "UNIT ANNOTATION": "%", "EXPERIMENTAL RESULT": -0.53}
{"SMILES": "CC[C@@H]1C(=O)OC[C@@H]1Cc1cncn1C", "UNIT ANNOTATION": "%", "EXPERIMENTAL RESULT": 1.99}

----------
# TARGET DESC: Acetylcholinesterase (Electrophorus electricus)
# APPLIED CONDITIONS: at 2 mg/mL
In this section we review reported inhibition values for a set of molecules.

{"SMILES": "C/C=C(/C)C(=O)O[C@H]1C(C)=C2[C@H]([C@@H]1OC(=O)CCCCCCC)[C@@](C)(OC(C)=O)C[C@H](OC(=O)CCC)[C@@]1(O)[C@H]2OC(=O)[C@@]1(C)O", "UNIT ANNOTATION": "%", "inhibition": 9.89}
{"SMILES": "COC(=O)C1=CO[C@@H](C)[C@@H]2CN3CCc4c([nH]c5ccccc45)[C@@H]3C[C@H]12", "UNIT ANNOTATION": "%", "inhibition": 22}
{"SMILES": "C[C@H]1CCCC(=O)CCC/C=C/c2cc(O)cc(O)c2C(=O)O1", "UNIT ANNOTATION": "%", "inhibition": 1.81}
{"SMILES": "OCc1c[nH]c2ccccc12", "UNIT ANNOTATION": "%", "inhibition": -4.82}

----------
In this section we review reported inhibition values for a set of compounds.
# TARGET DESC: UniProt P81908
# APPLIED CONDITIONS: at 2 mg/mL

{"SMILES": "COc1cc2c(cc1OC)[C@H](C)NCC2", "inhibition / %": -4.57}
{"SMILES": "COC1=CC(=O)C[C@@H](C)[C@]12Oc1c(Cl)c(OC)cc(OC)c1C2=O", "inhibition / %": -4.49}
{"SMILES": "CC1(C)CCC[C@]2(C)[C@H]3CC(=O)O[C@]3(C)CC[C@@H]12", "inhibition / %": -1.03}
{"SMILES": "C[C@H]1CCC/C=C/[C@@H]2C[C@H](O)C[C@H]2[C@H](O)/C=C/C(=O)O1", "inhibition / %": 5.24}
{"SMILES": "COc1cc(-c2oc3cc(O)ccc3c(=O)c2O)ccc1O", "inhibition / %": 12.8}
{"SMILES": "CC(=O)OC[C@@]1(O)C[C@@]23CC[C@@H]4c5ccoc5C=C[C@@]4(C)[C@@H]2CC[C@@H]1C3", "inhibition / %": 1.7}
{"SMILES": "COc1cc(-c2oc3cc(O)cc(O)c3c(=O)c2O)ccc1O", "inhibition / %": -2.06}
{"SMILES": "CC(=O)O[C@H]1C(=O)[C@@]2(C)[C@H]([C@H](OC(=O)c3ccccc3)[C@]3(O)C[C@H](O)C(C)=C1C3(C)C)[C@]1(OC(C)=O)CO[C@@H]1C[C@@H]2O", "inhibition / %": 5.3}
{"SMILES": "Cc1cc2c(C(C)C)c(O)c(O)c(C=O)c2c(O)c1-c1c(C)cc2c(C(C)C)c(O)c(O)c(C=O)c2c1O", "inhibition / %": -2.11}
{"SMILES": "C=C1CC[C@@H]2[C@](C)(CO)[C@H](O)CC[C@@]2(C)[C@@H]1C/C=C1/C(=O)OC[C@H]1O", "inhibition / %": 8.56}
{"SMILES": "C=C(C)[C@H]1Cc2c(ccc3c2O[C@@H]2COc4cc(OC)c(OC)cc4[C@@H]2C3=O)O1", "inhibition / %": 6.43}
{"SMILES": "C/C=C1\\C[C@@H](C)[C@](O)(CO)C(=O)OCC2=CCN3CC[C@@H](OC1=O)[C@@H]23", "inhibition / %": -3.05}

src = ChEMBL document CHEMBL2163249
